Recorded melting point by entry

>>> result("C[Si](C)(C)OC1c2cc(Br)ccc2-c2ccc(Br)cc2C1O[Si](C)(C)C (stereo not given)")
"144 to 145 °C"
>>> result("NC(=O)c1ccnc(-c2ccccc2)c1N")
"163 to 164 °C"
>>> result("CC(C)(C)n1cc(-c2ccc(I)cc2)c2c(N)ncnc21")
"188 to 189 °C"
>>> result("COc1ccc(-c2nc(OC(=O)N(C)C)nn2-c2ccc(OC)cc2)cc1")
"121 to 123 °C"
>>> result("O=C(NCCCC[C@@H](C(=O)O)n1c2ccccc2c2ccccc21)c1ccc(C(=O)c2ccccc2)cc1")
"97 to 98 °C"

For O=C(Nc1ccccc1S(=O)(=O)NCCCn1cccn1)c1cccc(C(F)(F)F)c1 , what is its reported melting point?
108 to 111 °C

Entry CC(C)(CCCCCCCCCCCCC1(C(=O)O)CC1)C(=O)O please
85.6 to 86.7 °C

How about this compound: O=[N+]([O-])c1ccc2c(c1)C=Cc1ccc(Br)cc1S2
190 to 192 °C

Here is the next compound: Nc1nc2ccc(Sc3ccccc3)cc2s1
180 to 182 °C

Try O=c1c2ccccc2nc(-c2cc(-c3ccc(Cl)cc3)c(N3CCOCC3)s2)n1-c1ccccc1 next.
229 to 230 °C

====

Entries and their melting point values follow.

Please review the following examples before continuing.
>>> result("CCCCCCCC[C@@H](O)C(=O)Nc1c(SC)ccc2ncccc12")
"119 to 120 °C"
>>> result("O=C1NC(=O)c2c1c(-c1ccccc1)cc1c2c2cc(O)ccc2n1CCn1ccnc1")
"> 345 °C"
>>> result("CCOC(=O)N1Cc2ccccc2C(Oc2ccc(C(F)(F)F)cc2)C1 (stereo not given)")
"84 °C"
>>> result("CCCNC(=O)c1nc2n(c1C)CCc1ccccc1C2OC1CCN(C)CC1 (stereo not given)")
"60 °C"
>>> result("CCOC(=O)C(=O)Nc1c([N+](=O)[O-])cc(Br)c2c1CN(C)C2")
"153 to 154 °C"
>>> result("CN1CCC(c2c[nH]c3ccc(-n4ccnn4)cc23)CC1")
"251 to 254 °C"
>>> result("CCCc1nn(C)c2c(=O)[nH]c(Cc3ccc4[nH]c(=O)ccc4c3)nc12")
"> 300 °C"
>>> result("COc1ccc(Cc2nc3cccc(CCCO)c3o2)cc1OC")
"95 to 97 °C"

Quick one: melting point of CCSc1cc(C)nc(SCC)c1NC(=O)CCCCCCCCSc1nc2ccccc2o1 ?
84 to 87 °C

One more compound: CCOC(=O)CN(Cc1cccnc1)c1ccc(C(O)(C(F)(F)F)C(F)(F)F)cc1
55 °C

====

quantity.name: melting point

Known results for compounds:
>>> result("CC(=O)SC(C)CNC(=O)c1cc(Cl)cc(C)c1NC(=O)c1cc(C(F)(F)F)nn1-c1ncccc1Cl (centres undefined)")
"137 to 139 °C"
>>> result("CN1CCN(Cc2ccc(C(=O)Nc3ccc(CO)c(Nc4nccc(-c5cccnc5)n4)c3)cc2)CC1")
"196 to 198 °C"
>>> result("CCCCCCCCOc1ccc(-c2cnc(-c3ccc(O)c(F)c3F)nc2)cn1")
"130 to 132 °C"
>>> result("CCOC(=O)[C@H](CSC(=O)c1ccccc1)NC(=O)c1ccccc1")
"81 °C"

Which melting point is listed for Cc1c(NC(=O)c2ccc(-c3ccc(F)cc3)cc2)ccc2cc(CN3CCCC3)cnc12 ?
220 to 222 °C

Param item: CC(C)OC(=O)c1cc(I)c(F)cc1Cl
38 to 43 °C

Can you handle Nc1ncccc1C(=O)NCC1CCN(C[C@H]2COc3ccc(Br)cc3O2)CC1 next?
158 to 160 °C

Try this compound too: COc1ccc(-c2sc(C=NO)c(-c3cccc(OC)c3)c2C)cc1
122 to 141 °C

Again, but for C=CCC1C(=O)N(c2ccccc2)N(c2ccccc2)C1=O
135 to 137 °C

====

Reported melting point values are given for each entry in this list.

Worked cases, answers included:
>>> result("O=C(O)c1cn2c(n1)COc1ccc([N+](=O)[O-])cc1-2")
"310 to 312 °C"
>>> result("CCCn1nc2c(N)nc3ccccc3c2c1NCCC1CCN(S(C)(=O)=O)CC1")
"204 to 207 °C"
>>> result("CCOC(=O)C(=Cc1ccc(OC)cc1OC)C(=O)OCC")
"40 to 41 °C"
>>> result("CCCc1c(OCCCCCOc2ccc3ccc(OCC(=O)OCC)cc3c2CCC(=O)OCC)ccc2c1OCCC2=O")
"68 to 69.5 °C"
>>> result("CCCCCCCCNC(=O)C(C)=Cc1cccc(N2CC(C(=O)O)CC2=O)c1 (stereo not given)")
"120 to 121 °C"
>>> result("OCc1c(F)c(F)c(Br)c(F)c1F")
"60 to 62 °C"
>>> result("CS(=O)(=O)c1ccc(C(CC2CCCC2)C(=O)O)cc1C#N (stereo not given)")
"180 to 181 °C"
>>> result("Cc1ccc2[nH]c3c(c2c1)CC(=O)Nc1cccnc1-3")
"> 330 °C"

Please look up its melting point: O=C1c2ccccc2C(=O)c2c1oc1ccc3cc(O)ccc3c21
318 °C

Next up: COCC(=O)Nc1cccc(C2(C3CCN(C(=O)c4ccc(O)cc4)CC3)N=C(N)N(C)C2=O)c1 (stereo not given)
184 to 187 °C

Now this one: COc1ccc2[nH]cc(CCC(=O)Nc3ccccc3C(=O)O)c2c1
168 to 170 °C

Then this compound: O=C(NCc1ccsc1)N(O)CCO
114 to 115 °C

And the next one, CCOC(=O)c1ccc([N+](=O)[O-])c(O)c1Br ?
58 to 61 °C

Now consider O=C(O)Cc1cccc(C(=O)c2ccccc2)c1[N+](=O)[O-] .
160 to 162 °C

Next entry: CC(=O)NC[C@H]1CN(c2cc(F)c(N3CCC(n4nnc(N5CCNCC5)n4)CC3)c(F)c2)C(=O)O1
180 to 185 °C

Would you kindly repeat that for C[C@@H]1OCCN(c2cc(N3CCOCC3)nc(-n3c(C(F)F)nc4ccccc43)n2)[C@@H]1C (relative stereo) ?
167 to 169 °C

Same thing, different compound: N#Cc1cc(F)c2ncc(C(=O)NCc3ccc(Cl)cc3)c(O)c2c1
> 300 °C

Same thing, different compound: CC(C)Nc1nc(S(C)(=O)=O)nc(Cl)c1-c1c(F)cccc1Cl
145 to 149 °C

How about this compound: O=C(Nc1ccc(Cl)cc1)c1ccccc1Cl
93.7 to 95.1 °C

And then COc1cc2nc(N3CCN(C(=O)CC(=O)c4ccccc4)CC3)nc(N)c2cc1OC , what is it?
214 to 215 °C

====

Quick reference for melting point among some molecules
Express it in °C; write the number only.

>>> numeric_result("Cc1cc(NC(N)=O)cc(C)c1NC(=O)CN1CCN(CCCC(c2ccc(F)cc2)c2ccc(F)cc2)C(C(N)=O)C1 (stereo not given)")
142

What does the record list as melting point for CSN(C)C(=O)Nc1ccc(Cl)c(Cl)c1 ?
93

====

# melting point listing for each entry below

>>> result("CC(C)c1ccc2c(c1)C=C(/C=C/C=C/C=C/C(=O)O)CO2")
"244 to 246 °C"
>>> result("N#Cc1cnccc1-c1c(-c2ccccc2)nn2ccccc12")
"208 to 210 °C"
>>> result("COc1ccc(Oc2cccc(C(=O)NCCN(O)C(N)=O)c2)cc1")
"160 to 162 °C"
>>> result("COc1ccc(-c2cnn3c(N)c(-c4ccc(F)c(Cl)c4)c(C)nc23)cc1OC")
"235 to 238 °C"

In the following, a different compound is considered.
Please give the measured melting point for this compound: Cc1cc(N2NCCNC2=O)cc(Cl)c1C(O)c1ccc(Cl)cc1 (stereo not given)
146 to 147 °C

====

Item-by-item account of melting point

>>> result("CCCCCCC(=S)SCCCC")
"46 to 47 °C"
>>> result("CCSC(C)C(=O)N(CC)c1c[nH]nc1Cl (stereo unspecified)")
"78 to 80 °C"

melting point for CCn1c(Br)cc2c(C)nc3c(Br)cnn3c21 ?
135 to 137 °C

Next entry: O=S1(=O)NC=Nc2cc(C(F)(F)F)c(F)cc21
152 °C

Request: COC(=O)C1C=CCN2C(=O)C(C)(CCOC3CCCCO3)C(=O)N12 (stereo unspecified)
128 °C

Now consider COC(=O)c1c(C(=O)OC)c(-c2ccc(OC)c(OC)c2)c2c(O)c(OC)c(OC)cc2c1O and answer again.
179 °C

Now consider CCCCN(C1CCCOc2ccccc21)S(=O)(=O)CC (stereo unspecified) .
62 to 65 °C

====

Listing: melting point of selected compounds

# count of solved cases: 2
>>> result("O=C(O)COc1ccc(-c2c(Cl)c(CN3C(=O)CCC3=O)nc3sc4c(c23)CCS(=O)(=O)C4)cc1")
"260 to 261 °C"
>>> result("O=C(OCC(Cl)(Cl)Cl)Oc1cc2occ(C(=O)O)c(=O)c2cc1OC(=O)OCC(Cl)(Cl)Cl")
"166 to 167 °C"

Endpoint output: melting point of CC(=O)NC[C@H]1CN(c2cc(F)c(C3CCN(C(=O)COCc4ccccc4)CC3)c(F)c2)C(=O)O1 . Value?
169 to 171 °C

Now try CC(CNc1ccc(C(=O)O)cc1)Oc1ccccc1 (centres undefined) .
140 to 144 °C

Check Cc1ccc(Cn2nc(C(=O)NC3CCCCC3C)cc2-c2ccc(Cl)c(Cl)c2)cc1Cl (centres undefined) too.
165 °C

Moving on to CCCCC1c2sccc2CCN1CCCOc1ccc([N+](=O)[O-])cc1 (centres undefined)
72 to 75 °C

Repeat for the following compound: NCc1ccc([N+](=O)[O-])cc1O
210 to 215 °C

Moving on to CC(C)(C(=O)Nc1cc(F)ccc1F)N1COC(C=O)=C(c2ccccc2)C1=O
76 to 77.5 °C

Ok, now O=C1c2ccccc2C(c2c(O)c3ccccc3oc2=O)N1c1ccccc1 (centres undefined)
335 to 337 °C

# iterate: O=C(O)c1cccc(CNC2CC3CC2C2CCCC32)c1 (centres undefined)
258 to 261 °C

Next compound up: C[C@](O)(COc1ccc(Cl)c(F)c1)C(=O)Nc1ccc(C#N)c(C(F)(F)F)c1
132 to 134 °C

Subsequent entry: O=C(c1cccnc1)c1cc(Br)cc(Br)c1
124 to 126 °C

The measurements presented in this section are drawn from a melting point compilation (Tetko et al.; mined from patent text by program, amines drawn as free bases though some values may be those of a salt).
